Origin of measurements: patent US12077503B2

System: barnyardgrass (Echinochloa crus-galli)
Assay: Test A preemergence
Type: in vivo
Details: Echinochloa crus-galli, pre-emergence, 240 h, 500 g ai/ha, preemergence; visual injury rating about 10 d after treatment, 0 to 100 scale (0 no effect, 100 complete control); read-out: Barnyardgrass plant response rating
// returns not satisfied unless pest or weed control at 500 g/ha is strictly below 90%, in which case satisfied

[[record]]
molecule = "CN1C[C@H](c2cc(F)cc(Cl)c2)[C@@H](C(=O)Nc2ccccc2F)C1=O"
assigned_category = "not satisfied"

[[record]]
molecule = "O=C1NCC(c2ccccc2OC(F)(F)C(F)F)C1C(=O)Nc1cccc(F)c1F (stereo not shown)"
assigned_category = "satisfied"

[[record]]
molecule = "Cc1ccc([C@H]2CN(C)C(=O)[C@@H]2C(=O)Nc2cccc(F)c2F)cc1C"
assigned_category = "not satisfied"

[[record]]
molecule = "Cc1ccc([C@H]2CNC(=O)[C@]2(Br)C(=O)Nc2cccc(F)c2F)cc1F (racemic)"
assigned_category = "not satisfied"

[[record]]
molecule = "CC(C)=CC1CNC(=O)C1C(=O)Nc1ccccc1S(C)(=O)=O (stereo not shown)"
assigned_category = "satisfied"

[[record]]
molecule = "CN1CC[C@H](c2ccc(OC(F)(F)F)cc2)[C@@H](C(=O)Nc2ccc(F)c(F)c2F)C1=O"
assigned_category = "satisfied"

[[record]]
molecule = "CSc1ccccc1NC(=O)[C@H]1C(=O)N(C)C[C@@H]1c1ccc(C)c(F)c1"
assigned_category = "not satisfied"

[[record]]
molecule = "O=C(Nc1ccccc1F)[C@H]1C(=S)NC[C@@H]1c1ccc(C(F)(F)F)cc1 (racemic)"
assigned_category = "satisfied"


---

// reported Plant response rating, Ryegrass, Italian for each item listed
System: ryegrass, Italian (Italian ryegrass, Lolium multiflorum)
Assay: Test C preemergence
Format: in vivo
Conditions: 250 g ai/ha, scale 0 to 100, 0 no effect, 100 complete control
experimental readout: Plant response rating, Ryegrass, Italian

[[record]]
compound = "O=C1NCC(c2cccc(OC(F)F)c2)C1C(=O)Nc1ccc(F)cc1F (stereo not shown) [Compound 421]"
numeric_result = 65

[[record]]
compound = "CN1CC(c2cccc(OC(F)(F)C(F)F)c2)C(C(=O)Nc2ccc(F)c(F)c2F)C1=O (stereo not shown) [Compound 429]"
numeric_result = 65

[[record]]
compound = "O=C1NCC(c2ccc3c(c2)OC(F)(F)O3)C1C(=O)Nc1cccc(F)c1F (stereo not shown) [Compound 635]"
numeric_result = 40

[[record]]
compound = "O=C1NCC(c2cccc(OC(F)(F)C(F)F)c2)C1C(=O)Nc1cccc(F)c1F (racemic) [Compound 697]"
numeric_result = 50


---

Test system: ryegrass, Italian (Italian ryegrass, Lolium multiflorum)
Assay: Test A postemergence
Assay type: in vivo
Conditions: Lolium multiflorum, post-emergence, 240 h, 125 g ai/ha, Postemergence; visual injury after approximately 10 d; 0 to 100 scale where 0 is no effect and 100 is complete control; read-out: Plant response rating, Ryegrass, Italian
experimental readout: pest or weed control at 125 g/ha (%)

[[record]]
compound = "O=C1NC[C@H](c2cc(C(F)(F)F)cs2)[C@H]1C(=O)Nc1ccccc1F"
test_target = "ryegrass, Italian (Italian ryegrass, Lolium multiflorum)"
experimental_readout = "pest or weed control at 125 g/ha"
unit_text = "%"
numeric_result = 30

[[record]]
compound = "CC(=O)Oc1ccc(NC(=O)[C@H]2C(=O)N(C)C[C@@H]2c2cc(F)cc(F)c2)c(F)c1"
test_target = "ryegrass, Italian (Italian ryegrass, Lolium multiflorum)"
experimental_readout = "pest or weed control at 125 g/ha"
unit_text = "%"
numeric_result = 0

[[record]]
compound = "O=C1NC[C@H](c2csc(C(F)(F)F)c2)[C@H]1C(=O)Nc1cccc(F)c1F"
test_target = "ryegrass, Italian (Italian ryegrass, Lolium multiflorum)"
experimental_readout = "pest or weed control at 125 g/ha"
unit_text = "%"
numeric_result = 20

[[record]]
compound = "COc1ccc([C@H]2CN(C)C(=O)[C@@H]2C(=O)Nc2ccccc2F)cc1F"
test_target = "ryegrass, Italian (Italian ryegrass, Lolium multiflorum)"
experimental_readout = "pest or weed control at 125 g/ha"
unit_text = "%"
numeric_result = 30

[[record]]
compound = "C=CCOc1cccc(C2CN(C)C(=O)C2C(=O)Nc2cccc(F)c2F)c1 (centres unmarked)"
test_target = "ryegrass, Italian (Italian ryegrass, Lolium multiflorum)"
experimental_readout = "pest or weed control at 125 g/ha"
unit_text = "%"
numeric_result = 40

[[record]]
compound = "Cc1cc([C@H]2CN(C)C(=O)[C@@H]2C(=O)Nc2cccc(F)c2F)ccc1Cl"
test_target = "ryegrass, Italian (Italian ryegrass, Lolium multiflorum)"
experimental_readout = "pest or weed control at 125 g/ha"
unit_text = "%"
numeric_result = 50

[[record]]
compound = "COc1cc(OC)cc([C@H]2CN(C)C(=O)[C@@H]2C(=O)Nc2ccccc2F)c1"
test_target = "ryegrass, Italian (Italian ryegrass, Lolium multiflorum)"
experimental_readout = "pest or weed control at 125 g/ha"
unit_text = "%"
numeric_result = 0

[[record]]
compound = "CN1C[C@H](c2ccc(C(F)(F)F)cc2)[C@@H](C(=O)Nc2cccc(F)c2Br)C1=O"
test_target = "ryegrass, Italian (Italian ryegrass, Lolium multiflorum)"
experimental_readout = "pest or weed control at 125 g/ha"
unit_text = "%"
numeric_result = 20


---

# Plant response rating, Wheat annotations
Tested on: wheat (Triticum aestivum)
Test: Test A postemergence
Type: in vivo
Details: 125 g ai/ha, postemergence; visual rating after approx. 10 d, 0 to 100 scale (0 no effect, 100 complete control)
experimental readout: Plant response rating, Wheat

[[record]]
compound = "CN1CC(c2ccc(F)c(C(F)(F)F)c2)C(C(=O)Nc2ccccc2F)C1=O (stereo not shown)"
experimental_readout = "Plant response rating, Wheat"
result = 40

[[record]]
compound = "CCc1cc(C2CNC(=O)C2C(=O)Nc2cccc(F)c2F)cs1 (racemic)"
experimental_readout = "Plant response rating, Wheat"
result = 0

[[record]]
compound = "C=CCOc1cccc(C2CNC(=O)C2(CC=C)C(=O)Nc2cccc(F)c2F)c1 (stereo not shown)"
experimental_readout = "Plant response rating, Wheat"
result = 0

[[record]]
compound = "CN1CC(c2cccc(F)c2)C(C(=O)Nc2ccc(F)cc2F)C1=O (stereo not shown)"
experimental_readout = "Plant response rating, Wheat"
result = 0


---

System: blackgrass (Alopecurus myosuroides)
Test: Test A postemergence
Type: in vivo
Settings: Alopecurus myosuroides, post-emergence, 240 h, Postemergence, 31 g ai/ha; visual injury after approx. 10 d; 0 to 100 scale, 0 no effect, 100 complete control; read-out: Plant response rating, Blackgrass
// values below are reported pest or weed control at 31 g/ha
experimental readout: pest or weed control at 31 g/ha (%)

[[record]]
compound = "Cc1ccc([C@H]2CN(C)C(=O)[C@@H]2C(=O)Nc2cccc(F)c2C)cc1"
unit_text = "%"
numeric_result = 70

[[record]]
compound = "CN1CC[C@H](c2ccc3c(c2)OC(F)(F)O3)[C@@H](C(=O)Nc2ccccc2C(F)(F)F)C1=O"
unit_text = "%"
numeric_result = 0

[[record]]
compound = "CN1CC[C@H](c2cccc(OC(F)(F)F)c2)[C@@H](C(=O)Nc2ccc(F)c(F)c2F)C1=O"
unit_text = "%"
numeric_result = 0

[[record]]
compound = "Cc1cc(F)cc([C@H]2CN(C)C(=O)[C@@H]2C(=O)Nc2cccc(F)c2C)c1"
unit_text = "%"
numeric_result = 20

[[record]]
compound = "CN1C[C@H](c2ccc(C(F)(F)F)c(Br)c2)[C@@H](C(=O)Nc2cccc(F)c2F)C1=O"
unit_text = "%"
numeric_result = 0

[[record]]
compound = "CC(C)Oc1cc([C@H]2CN(C)C(=O)[C@@H]2C(=O)Nc2cccc(F)c2F)ccc1F"
unit_text = "%"
numeric_result = 40

[[record]]
compound = "CN1CC[C@H](c2cccc(OC(F)(F)F)c2)[C@@H](C(=O)Nc2ccccc2C(F)(F)F)C1=O"
unit_text = "%"
numeric_result = 0

[[record]]
compound = "CN1CC(c2cccc(C(F)(F)F)c2)C(C(=O)Nc2ccccc2C(C)(C)O)C1=O (stereo not shown)"
unit_text = "%"
numeric_result = 0

[[record]]
compound = "CN1C[C@H](c2cccc([Si](C)(C)C)c2)[C@@H](C(=O)Nc2cccc(F)c2F)C1=O"
unit_text = "%"
numeric_result = 0

[[record]]
compound = "CN1CC[C@H](c2ccc3c(c2)OC(F)(F)O3)[C@@H](C(=O)Nc2ccc(F)c(F)c2F)C1=O"
unit_text = "%"
numeric_result = 30


---

Test system: barnyardgrass (Echinochloa crus-galli)
Test: Test G Pre-Emergence Protocol
Type: in vivo
Conditions: Echinochloa crus-galli, pre-emergence, 312 h, 62.5 g ai/ha, evaluated after 13 days, 100=total damage to plant, 0=no damage to plant, read-out: Barnyardgrass damage rating
// boundary case: pest or weed control at 62.5 g/ha equal to 70% maps to NO; strictly smaller maps to YES

[[record]]
molecule = "CC(C)S(=O)(=O)c1ccccc1NC(=O)[C@H]1C(=O)N(C)C[C@@H]1c1ccc(C(F)(F)F)cc1 (racemic) [Compound 1665]"
assigned_category = "YES"

[[record]]
molecule = "CN1CC(c2cc(F)c(Cl)c(F)c2)C(C(=O)Nc2cccc(F)c2F)C1=O (stereo not shown) [Compound 1703]"
assigned_category = "NO"

[[record]]
molecule = "CN1C[C@@H](c2ccc(CF)cc2)[C@H](C(=O)Nc2cccc(F)c2F)C1=O (racemic) [Compound 1822]"
assigned_category = "NO"

[[record]]
molecule = "CN1C[C@H](c2cccc(C(F)(F)F)c2)[C@@H](C(=O)Nc2cccnc2F)C1=O (racemic) [Compound 1809]"
assigned_category = "NO"

[[record]]
molecule = "CN1C[C@H](c2cccc(C(F)(F)F)c2)[C@@H](C(=O)Nc2c(O)cccc2F)C1=O (racemic) [Compound 1808]"
assigned_category = "YES"

[[record]]
molecule = "Cc1nc(Cl)ccc1NC(=O)[C@H]1C(=O)N(C)C[C@@H]1c1ccc(C(F)(F)F)cc1 (racemic) [Compound 1825]"
assigned_category = "YES"

[[record]]
molecule = "CN1CC(c2cc(C#N)cc(OC(F)(F)F)c2)C(C(=O)Nc2cccc(F)c2F)C1=O (stereo not shown) [Compound 1694]"
assigned_category = "YES"

[[record]]
molecule = "Cc1c(F)cccc1NC(=O)[C@@H]1C(=O)N(C)C[C@H]1c1ccc2nonc2c1 (racemic) [Compound 1818]"
assigned_category = "YES"

[[record]]
molecule = "CN1C[C@H](c2cccc(C(F)(F)F)c2)[C@@H](C(=O)Nc2cccc3c2S(=O)(=O)CC3)C1=O (racemic) [Compound 1738]"
assigned_category = "YES"

